Values compiled from patent US20220177604A1.

# tested-system: recombinant Motavizumab human IgE (rMota-hIgE) (human) (UniProt P01854)
# Sequence (P01854 other isoform, or with tags, fused parts or gaps limits assumed, form in doubt): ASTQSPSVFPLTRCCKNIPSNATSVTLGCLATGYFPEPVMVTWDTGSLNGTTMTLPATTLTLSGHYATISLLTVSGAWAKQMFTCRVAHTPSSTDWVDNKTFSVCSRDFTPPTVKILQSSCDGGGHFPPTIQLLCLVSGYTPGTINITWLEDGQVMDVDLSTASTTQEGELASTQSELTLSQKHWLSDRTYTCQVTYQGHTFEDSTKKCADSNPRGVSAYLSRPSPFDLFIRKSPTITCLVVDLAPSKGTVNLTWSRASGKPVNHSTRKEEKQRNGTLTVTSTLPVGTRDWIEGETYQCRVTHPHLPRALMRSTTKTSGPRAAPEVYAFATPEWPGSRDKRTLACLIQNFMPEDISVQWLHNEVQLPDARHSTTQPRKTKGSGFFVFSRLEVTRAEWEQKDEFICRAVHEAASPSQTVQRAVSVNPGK
# assay-comment: hIgE binding ELISA
Consider the cut-off 6. If the recorded Ratio OD450 pH 7.4/pH 6 is strictly smaller, the label is fulfilled; if not, the label is not fulfilled.

Field: example entries. Status: answers known.
binder	qualitative-label
CL-2C mAb 30 (antibody, V domains shown) VH: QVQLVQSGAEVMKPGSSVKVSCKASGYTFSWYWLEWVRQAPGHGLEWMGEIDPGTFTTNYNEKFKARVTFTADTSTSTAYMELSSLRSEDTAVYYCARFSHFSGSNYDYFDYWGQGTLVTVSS VL: EIVMTQSPATLSVSPGERATLSCRASQSIGTNIHWYQQKPGQAPRLLIYHASESISGIPARFSGSGSGTEFTLTISSLQSEDFAVYYCQQSWSWPTTFGGGTKVEIK	not fulfilled
CL-2C mAb 8 (antibody, V domains shown) VH: QVQLVQSGAEVMKPGSSVKVSCKASGYTFSWYHLEWVRQAPGHGLEWMGEIDPGTFTTNYNEKFKARVTFTADTSTSTAYMELSSLRSEDTAVYYCARFSHFSGSHYDYFDYWGQGTLVTVSS VL: EIVMTQSPATLSVSPGERATLSCRASQSIGTNIHWYQQKPGQAPRLLIYHASESISGIPARFSGSGSGTEFTLTISSLQSEDFAVYYCHQSDSWPTTFGGGTKVEIK	fulfilled
CL-2C mAb 34 (antibody, V domains shown) VH: QVQLVQSGAEVMKPGSSVKVSCKASGYTFSWYHLEWVRQAPGHGLEWMGEIDPGTFTTNYNEKFKARVTFTADTSTSTAYMELSSLRSEDTAVYYCARFSHFSGHNYDYFDYWGQGTLVTVSS VL: EIVMTQSPATLSVSPGERATLSCRASQSIGTNIHWYQQKPGQAPRLLIYYASESISGIPARFSGSGSGTEFTLTISSLQSEDFAVYYCQQSWSHPTTFGGGTKVEIK	fulfilled
CL-2C mAb 12 (antibody, V domains shown) VH: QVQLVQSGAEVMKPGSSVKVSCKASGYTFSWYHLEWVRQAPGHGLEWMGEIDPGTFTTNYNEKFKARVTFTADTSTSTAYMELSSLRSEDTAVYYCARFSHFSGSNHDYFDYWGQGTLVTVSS VL: EIVMTQSPATLSVSPGERATLSCRASQSIGTNIHWYQQKPGQAPRLLIYHASESISGIPARFSGSGSGTEFTLTISSLQSEDFAVYYCQQSWSHPTTFGGGTKVEIK	fulfilled

In plain terms, does CL-2C mAb 2 (antibody, V domains shown) VH: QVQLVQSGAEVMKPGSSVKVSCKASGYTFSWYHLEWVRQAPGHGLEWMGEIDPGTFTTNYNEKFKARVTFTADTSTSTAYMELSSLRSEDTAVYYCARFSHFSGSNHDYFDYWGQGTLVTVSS VL: EIVMTQSPATLSVSPGERATLSCRASQHIGTNIHWYQQKPGQAPRLLIYYASESISGIPARFSGSGSGTEFTLTISSLQSEDFAVYYCQQSWSHPTTFGGGTKVEIK come in under 6 for Ratio OD450 pH 7.4/pH 6? not fulfilled
